Would you kindly list pKd for each of these binders?
Target: HLA-DR (DRA1*01:01 / DRB1*12:01), soluble knob-into-hole Fc heterodimer (human)
Assay: ELISA
Numbers only, as −log10 of the molar value.

{"binder": "GNYNYLYRLFRKSNL [SARS-CoV-2 RBD peptide RBD447-461, wildtype strain]", "pKd": 6.64}
{"binder": "VVLSFELLHAPATVC [SARS-CoV-2 RBD peptide RBD511-525]", "pKd": 6.20}
{"binder": "VEGFNCYFPLQSYGF [SARS-CoV-2 RBD peptide RBD483-497]", "pKd": 6.36}

Let us move to another entry and its pKd.
Value of pKd reported for the binder TESIVRFPNITNLCP [SARS-CoV-2 RBD peptide RBD323-337] is 5.31

Every entry's value here was drawn from paper doi:10.1101/2025.06.05.658000.
